- testedSystem: T1, Cyno CD33 ECD-HSA (cynomolgus monkey)
- T1 construct: Cyno CD33 extracellular domain fused to monomeric human serum albumin and a six-histidine tag; also called C33W1
- procedureSummary: SPRi off-rate screen (IBIS MX96), mAb captured by anti-human Fc; column head prints Cyno CD33 binding KD
observable: koff (s⁻¹)
# value in s⁻¹; strip the unit string

>>> quantitativeresult("C33B46 (antibody, IgG1, V domains shown, huIgG1 F405L; also called C33F51; C33H108/C33L74) VH: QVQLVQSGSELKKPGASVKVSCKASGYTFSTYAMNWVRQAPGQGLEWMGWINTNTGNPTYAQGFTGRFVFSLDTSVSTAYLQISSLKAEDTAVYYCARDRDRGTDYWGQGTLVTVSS VL: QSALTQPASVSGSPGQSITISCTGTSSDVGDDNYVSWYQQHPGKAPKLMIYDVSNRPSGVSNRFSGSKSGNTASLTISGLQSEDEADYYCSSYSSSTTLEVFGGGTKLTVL")
0.000148

Next, consider the following binder.
## Task Look at this binder and give its reported koff. C33B48 (antibody, IgG1, V domains shown, huIgG1 F405L; also called C33F53; C33H80/C33L73) VH: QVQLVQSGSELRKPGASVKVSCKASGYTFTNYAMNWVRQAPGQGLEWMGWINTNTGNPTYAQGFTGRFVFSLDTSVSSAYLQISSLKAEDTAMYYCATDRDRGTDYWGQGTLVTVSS VL: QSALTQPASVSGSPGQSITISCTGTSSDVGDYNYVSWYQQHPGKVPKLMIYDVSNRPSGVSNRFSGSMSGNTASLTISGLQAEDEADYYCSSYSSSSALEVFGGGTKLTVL
## Result 0.00012
